Listed below: clearance values for each entry.
Assay: Rat pharmacokinetics
Settings: in vivo
Give the number; mL/min/kg is assumed, so skip it.

Task: # lookup: clearance of Cc1cc(F)cc2c(CCC(=O)N[C@@H]3C(=O)NC[C@H]3O)c(-c3ccc(F)cc3)[nH]c12
Output: 6

Task: Need clearance, item Cc1cc(F)cc2c(CCC(=O)N[C@H]3CCNC3=O)c(-c3ccc(F)cc3)[nH]c12
Output: 15

In the following, a different molecule is considered.
Task: For O=C(CCc1c(-c2ccc(F)cc2)[nH]c2c(F)cc(F)cc12)N[C@@H]1C(=O)NC[C@H]1O , what is its reported clearance?
Output: 4.8
